biological target: 72 kDa type IV collagenase (Homo sapiens); assay: Ratio Kcat to Ki for MMP2
Numbered stars: 1 amine (or outer) side, 2 acyl side, 3 side chain; on linkers, the order of the positions; unused ones are H or OH. Square brackets hold non-standard residues; d marks the D form. Peptide text beside a SMILES is read from it. * marks the point of attachment. ξ: configuration not given here. Doxorubicin(3'-N) = COc1cccc2c1C(=O)c1c(O)c3c(c(O)c1C2=O)C[C@@](O)(C(=O)CO)C[C@@H]3O[C@H]1C[C@H](N*)[C@H](O)[C@H](C)O1; X2 = O=C(C(CCc1ccncc1)N[*:1])[*:2]; Cit = NC(=O)NCCC[C@H](N)C(=O)O; Suc = O=C(CCC(=O)[*:2])[*:1]; X5 = O=C(CS(=O)(=O)O)*; ξP = O=C(O)C1CCCN1; Bn = c1ccc(C*)cc1
Assignment: determine reported Ratio for the given compounds.
Please respond with just the number, no unit label.

In plain terms, COc1cccc2c1C(=O)c1c(O)c3c(c(O)c1C2=O)C[C@@](O)(C(=O)CO)C[C@@H]3O[C@H]1C[C@H](NC(=O)[C@H](CC(C)C)NC(=O)[C@H](Cc2ccc(O)cc2)NC(=O)[C@H](COCc2ccccc2)NC(=O)CNC(=O)[C@H](CC(C)C)NC(=O)C2CCCN2C(=O)CCC(=O)O)[C@H](O)[C@H](C)O1 (stereo partly specified) (Suc-[ξP]LGS(Bn)YL-{Doxorubicin(3'-N)}) has a documented Ratio of 20

In plain terms, COc1cccc2c1C(=O)c1c(O)c3c(c(O)c1C2=O)C[C@@](O)(C(=O)CO)C[C@@H]3O[C@H]1C[C@H](NC(=O)[C@H](CC(C)C)NC(=O)[C@H](CC(C)C)NC(=O)CNC(=O)[C@H](CC(C)C)NC(=O)[C@@H]2CCCN2C(C)=O)[C@H](O)[C@H](C)O1 (Ac-PLGLL-{Doxorubicin(3'-N)}) has a documented Ratio of 18

In plain terms, COc1cccc2c1C(=O)c1c(O)c3c(c(O)c1C2=O)C[C@@](O)(C(=O)CO)C[C@@H]3O[C@H]1C[C@H](NC(=O)[C@H](CC(C)C)NC(=O)[C@H](Cc2ccc(O)cc2)NC(=O)C(CCc2ccncc2)NC(=O)CNC(=O)[C@H](CC(C)C)NC(=O)[C@@H]2CCCN2C(C)=O)[C@H](O)[C@H](C)O1 (stereo partly specified) (Ac-PLG[X2]YL-{Doxorubicin(3'-N)}) has a documented Ratio of 21

In plain terms, COc1cccc2c1C(=O)c1c(O)c3c(c(O)c1C2=O)C[C@@](O)(C(=O)CO)C[C@@H]3O[C@H]1C[C@H](NC(=O)[C@H](CC(C)C)NC(=O)[C@H](Cc2ccc(O)cc2)NC(=O)[C@H](COCc2ccccc2)NC(=O)CNC(=O)[C@H](CCCNC(N)=O)NC(=O)[C@@H]2CCCN2C(=O)CS(=O)(=O)O)[C@H](O)[C@H](C)O1 (X5-P[Cit]GS(Bn)YL-{Doxorubicin(3'-N)}) has a documented Ratio of 25
